These entries and their values trace back to patent US12091411B2.

- Assay Target: IRAK4 (Homo sapiens)
- Construct: Degradation of IRAK4 in OCI-LY10 was quantitatively measured using Meso Scale Discovery technology; endogenous in cells; host or cells: OCI-LY10
- Sequence (Q9NWZ3 whole entry): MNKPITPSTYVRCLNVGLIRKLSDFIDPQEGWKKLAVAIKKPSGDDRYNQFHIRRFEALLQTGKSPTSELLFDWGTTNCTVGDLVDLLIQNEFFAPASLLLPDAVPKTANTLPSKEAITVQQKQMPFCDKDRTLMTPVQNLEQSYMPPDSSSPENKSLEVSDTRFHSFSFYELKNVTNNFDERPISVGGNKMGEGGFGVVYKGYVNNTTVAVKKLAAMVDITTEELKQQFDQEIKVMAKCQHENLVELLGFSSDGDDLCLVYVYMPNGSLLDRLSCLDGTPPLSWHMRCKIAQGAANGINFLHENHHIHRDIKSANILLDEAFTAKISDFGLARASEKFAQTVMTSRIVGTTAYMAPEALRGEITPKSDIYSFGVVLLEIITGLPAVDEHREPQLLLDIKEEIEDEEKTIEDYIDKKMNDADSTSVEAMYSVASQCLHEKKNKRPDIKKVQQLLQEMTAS
- Assay Comment: IRAK4 MSD Degradation in OCI-LY10
- Format: cell-based
- Assay Setup: OCI-LY10 cells, 24 hrs incubation, MSD; read-out: IRAK4 degradation in OCI-LY10 at 24 hrs: DC50
Property: DC50; scope: individual compounds

{"Compound": "Cn1c(=O)n(C2CCC(=O)NC2=O)c2cccc(C#CCN3CCN(C[C@H]4CC[C@H](n5cc(NC(=O)c6cnn7ccc(C8CCC8)nc67)c(C(F)F)n5)CC4)CC3)c21 (some centres unmarked)", "Assay Target": "IRAK4 (Homo sapiens)", "Measured": "> 200 nM"}

Problem: Would you kindly share the measured DC50 for Cn1c(=O)n(C2CCC(=O)NC2=O)c2cccc(N3CCN([C@H]4CCN(C[C@H]5CC[C@H](n6cc(NC(=O)c7cnn8ccc(N9CC%10(COC%10)C9)nc78)c(C(F)F)n6)CC5)CC4(F)F)CC3)c21 (some centres unmarked) ?
Solution: > 200 nM

Problem: Would you kindly share the measured DC50 for Cn1c(=O)n(C2CCC(=O)NC2=O)c2cccc(N3CCN([C@@H]4CCN(C[C@H]5CC[C@H](n6cc(NC(=O)c7cnn8ccc(N9C[C@H]%10C[C@@H]9CO%10)nc78)c(C(F)F)n6)CC5)C[C@@H]4F)CC3)c21 (some centres unmarked) ?
Solution: < 10 nM

Problem: Would you kindly share the measured DC50 for Cn1c(=O)n(C2CCC(=O)NC2=O)c2cccc(C#CCN3CCN(C[C@H]4CC[C@H](n5cc(NC(=O)c6cnn7ccc(N8CCC9(CC9)C8)nc67)c(C(F)F)n5)CC4)CC3)c21 (some centres unmarked) ?
Solution: 10 to 100 nM

Problem: Would you kindly share the measured DC50 for COc1ccc([C@H]2CC[C@H](CN3CCC(OCC#Cc4cccc5c4n(C)c(=O)n5C4CCC(=O)NC4=O)CC3)CC2)cc1NC(=O)c1cnn2ccc(N3C[C@H]4C[C@@H]3CO4)nc12 (some centres unmarked) ?
Solution: > 200 nM
